test system: ATP; test: switch fluorescence ratio, 500 uM ATP over buffer (Cy3 cluster intensity, sum of 5 cycles each) (fold (ratio)); higher = stronger signal-on switching upon ATP binding; sequences stand for … in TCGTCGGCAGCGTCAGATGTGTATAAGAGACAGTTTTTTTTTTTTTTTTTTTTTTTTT…TC; settings: aptamer strand: ATP DNA aptamer (quencher-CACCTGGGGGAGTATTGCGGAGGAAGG + anchor), 100 nM annealed; ATP concentration: 500 uM;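 further: ATP exposure 15 min at 22 °C before imaging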
Tag: TRUE if measured switch fluorescence ratio is not below 1, FALSE if it is.

Worked set:
Residue string: ATTAAAATAT
Assigned label: TRUE

Residue string: TTTAGCTTTT
Assigned label: TRUE

Residue string: CTGTGTGCGG
Assigned label: FALSE

Residue string: ATATCCTTCA
Assigned label: TRUE

Residue string: TTACGGTCCC
Assigned label: TRUE

Residue string: ATTCCTCAGC
Assigned label: TRUE

Residue string: CTAGTCAAGA
Assigned label: TRUE

Residue string: ACGCGATATG
Assigned label: TRUE

Residue string: AAGCGGAGCC
Assigned label: FALSE

Residue string: TCGGGCCAGG
Assigned label: TRUE

Ask: State whether the measured switch fluorescence ratio reaches 1, counting equality as reaching it, for TTCCTTGGTA
Reply: TRUE

Ask: Would you say CCAGCCGTCG shows switch fluorescence ratio at minimum 1?
Reply: TRUE

Ask: Would you say CTAAGGGGGT shows switch fluorescence ratio at minimum 1?
Reply: FALSE

Ask: Answer whether switch fluorescence ratio of CATACCGGGG is greater than or equal to 1.
Reply: TRUE

Ask: switch fluorescence ratio >= 1 for AGAGGTGGGG ?
Reply: FALSE

Ask: Could you please find out whether ATCGCTATGG has switch fluorescence ratio that meets 1 or exceeds it?
Reply: TRUE

Ask: // inclusive: switch fluorescence ratio at least 1? input: AGGCTCATGG
Reply: TRUE

Ask: Identify whether the reported switch fluorescence ratio of the following sequence is 1 or greater: AAAAAATACG
Reply: TRUE

Ask: Decide: switch fluorescence ratio of TCCTGGGCGG >= 1?
Reply: TRUE

Ask: Identify whether the reported switch fluorescence ratio of the following sequence is 1 or greater: GCACTTTAGC
Reply: TRUE

Ask: Does the reported switch fluorescence ratio for CAGGACACCT fall at or above the 1 mark?
Reply: TRUE

Ask: Textbook exercise: given the entry TGCAAGGGGT , state whether its switch fluorescence ratio is greater than or equal to 1.
Reply: TRUE

Entry source: the supplement of paper PMC10126150
